Test system: Vero cells
protocol.text: Cytotoxicity, Vero cells, Alamar Blue
Format: cell-based
particulars: 25 μM, 20 hours
I'd appreciate it if you could supply Cell viability (% of control) values for the items below.
Give bare numbers, in %.

Example cases with answers are listed next.
Cc1c(NC(=O)OC(C)(C)C)ccc2nc(N3C[C@H](OCc4ccccc4)C[C@H]3C(=O)N(C)CCc3ccncc3)oc(=O)c12 ... 68.2
Cc1c(NC(=O)OC(C)(C)C)ccc2nc(N(C)[C@@H](Cc3ccccc3)C(=O)N(C)CCc3ccncc3)oc(=O)c12 ... 60.7
Cc1c(NC(=O)OC(C)(C)C)ccc2nc(N3CCCC[C@H]3C(=O)NCCc3ccccn3)oc(=O)c12 ... 55.6
Cc1c(NC(=O)c2cccc([N+](=O)[O-])c2)ccc2nc(NC(C)(C)C(=O)N(C)CCc3ccccn3)oc(=O)c12 ... 80.4
Cc1c(NC(=O)C(C)C)ccc2nc(NC(C)(C)C(=O)N(C)CCc3ccccn3)oc(=O)c12 ... 99.7
Cc1c(NC(=O)OC(C)(C)C)ccc2nc(N[C@@H](CCc3ccccc3)C(=O)NCc3ccncc3)oc(=O)c12 ... 101.0
COc1ccc(C(=O)Nc2ccc3nc(NC(C)(C)C(=O)N(C)CCc4ccccn4)oc(=O)c3c2C)cc1 ... 66.0
Cc1c(NC(=O)c2ccc(OC(F)(F)F)cc2)ccc2nc(NC(C)(C)C(=O)N(C)CCc3ccccn3)oc(=O)c12 ... 26.1

So, Cc1c(NC(=O)OC(C)(C)C)ccc2nc(N(C)[C@@H](C)C(=O)NCc3ccccn3)oc(=O)c12 ? Its Cell viability (% of control) was 107.0

====

I'd appreciate it if you could supply EC90 values for the items below.
System: HSV-1
protocol.text: Antiviral activity, HSV-1 in Vero cells, plaque method
Format: cell-based
particulars: Human alphaherpesvirus 1, 20 hours, 90% inhibition of plaque formation

Cc1c(NC(=O)CCNC(=O)OC(C)(C)C)ccc2nc(N[C@@H](C)C(=O)N(C)CCc3ccccn3)oc(=O)c12 ... > 20 µM
Cc1c(NC(=O)CCCNC(=O)OCc2ccccc2)ccc2nc(NC(C)(C)C(=O)N(C)CCc3ccccn3)oc(=O)c12 ... > 12.5 µM
COc1cccc(C(=O)Nc2ccc3nc(NC(C)(C)C(=O)N(C)CCc4ccccn4)oc(=O)c3c2C)c1 ... 10.2 µM

Need EC90 for each of these compounds.
1. Cc1c(NC(=O)CCl)ccc2nc(NC(C)(C)C(=O)N(C)CCc3ccccn3)oc(=O)c12
2. Cc1c(NC(=O)C=Cc2ccccc2)ccc2nc(NC(C)(C)C(=O)N(C)CCc3ccccn3)oc(=O)c12
3. Cc1c(NC(=O)CCCNC(=O)c2ccc(C(F)(F)F)cc2)ccc2nc(NC(C)(C)C(=O)N(C)CCc3ccccn3)oc(=O)c12

A:
> 12.5 µM
10.8 µM
> 12.5 µM

Need EC90 for each of these compounds.
1. Cc1c(NC(=O)c2ccccc2)ccc2nc(NC(C)(C)C(=O)N(C)CCc3ccccn3)oc(=O)c12
2. Cc1c(NC(=O)OC(C)(C)C)ccc2nc(NC3(C(=O)N(C)CCc4ccncc4)CC3)oc(=O)c12
3. Cc1c(NC(=O)OC(C)(C)C)ccc2nc(NC3(C(=O)N(C)CCc4ccccn4)CCCC3)oc(=O)c12
4. Cc1c(NC(=O)CCCNC(=O)c2ccccn2)ccc2nc(NC(C)(C)C(=O)N(C)CCc3ccccn3)oc(=O)c12

A:
["> 12.5 µM", "> 12.5 µM", "9.6 µM", "> 12.5 µM"]

====

Measured pIC50 on HSV-1 protease (Human herpesvirus 1, UniProt P10210) follows.
Sequence (P10210 1-247): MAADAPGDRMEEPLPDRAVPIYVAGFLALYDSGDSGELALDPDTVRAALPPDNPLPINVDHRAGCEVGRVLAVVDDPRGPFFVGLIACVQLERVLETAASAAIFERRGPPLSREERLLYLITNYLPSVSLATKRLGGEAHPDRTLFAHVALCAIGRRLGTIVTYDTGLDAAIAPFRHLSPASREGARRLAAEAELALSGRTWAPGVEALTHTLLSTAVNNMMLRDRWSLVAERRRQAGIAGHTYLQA
One number for each entry, as −log10 of the molar value.

Cc1c(NC(=O)OC(C)(C)C)ccc2nc(NCCC(=O)N(C)CCc3ccccn3)oc(=O)c12 ... 6.05
Cc1c(NC(=O)OC(C)(C)C)ccc2nc(N[C@@H](Cc3ccccc3)C(=O)NCc3cccnc3)oc(=O)c12 ... 6.15
Cc1c(NC(=O)OC(C)(C)C)ccc2nc(N[C@H](C(=O)N(C)CCc3cccnc3)C(C)C)oc(=O)c12 ... 5.82
Cc1c(NC(=O)c2cccc(F)c2)ccc2nc(NC(C)(C)C(=O)N(C)CCc3ccccn3)oc(=O)c12 ... 5.82
Cc1c(NC(=O)c2ccc3ccccc3c2)ccc2nc(NC(C)(C)C(=O)N(C)CCc3ccccn3)oc(=O)c12 ... 5.17

# context switch: different compound, same pIC50
So, Cc1c(NC(=O)C=Cc2ccccc2)ccc2nc(NC(C)(C)C(=O)N(C)CCc3ccccn3)oc(=O)c12 ? Its pIC50 was 5.85

====

system.name: HSV-1 protease (Human herpesvirus 1, UniProt P10210)
test.readout: pIC50
Answers are plain numbers, as −log10 of the molar value.

Example cases with answers are listed next.
Cc1c(NC(=O)OC(C)(C)C)ccc2nc(N[C@@H](CC3CCCCC3)C(=O)NCCc3ccccn3)oc(=O)c12 ... 4.71
Cc1c(NC(=O)OC(C)(C)C)ccc2nc(N[C@@H](CC(C)C)C(=O)N(C)CCc3ccccn3)oc(=O)c12 ... 5.77
Cc1c(NC(=O)OC(C)(C)C)ccc2nc(N3CCCC[C@H]3C(=O)N(C)CCc3cccnc3)oc(=O)c12 ... 5.13
Cc1c(NC(=O)c2cccc(Br)c2)ccc2nc(NC(C)(C)C(=O)N(C)CCc3ccccn3)oc(=O)c12 ... 5.80

So, Cc1c(NC(=O)CCNC(=O)OC(C)(C)C)ccc2nc(N[C@H](C)C(=O)N(C)CCc3ccccn3)oc(=O)c12 ? Its pIC50 was 5.62

====

I'd appreciate it if you could supply Cell viability (% of control) values for the items below.
System: Vero cells
protocol.text: Cytotoxicity, Vero cells, Alamar Blue
Format: cell-based
particulars: 25 μM, 20 hours
Numbers only, in %.

Example cases with answers are listed next.
Cc1c(NC(=O)c2ccc(Br)cc2)ccc2nc(NC(C)(C)C(=O)N(C)CCc3ccccn3)oc(=O)c12 ... 28.3
Cc1c(NC(=O)OC(C)(C)C)ccc2nc(N[C@@H](Cc3ccccc3)C(=O)NCc3cccnc3)oc(=O)c12 ... 98.6
Cc1c(NC(=O)OC(C)(C)C)ccc2nc(N3Cc4ccccc4C[C@H]3C(=O)NCc3ccccn3)oc(=O)c12 ... 55.2
Cc1cc(C(=O)Nc2ccc3nc(NC(C)(C)C(=O)N(C)CCc4ccccn4)oc(=O)c3c2C)c(C)o1 ... 93.3
Cc1c(NC(=O)c2cc(Cl)sc2Cl)ccc2nc(NC(C)(C)C(=O)N(C)CCc3ccccn3)oc(=O)c12 ... 44.3

Need Cell viability (% of control) for each of these compounds.
1. Cc1c(NC(=O)c2cccc(Cl)c2)ccc2nc(NC(C)(C)C(=O)N(C)CCc3ccccn3)oc(=O)c12
2. Cc1c(NC(=O)OC(C)(C)C)ccc2nc(N[C@@H](CCc3ccccc3)C(=O)NCCc3ccccn3)oc(=O)c12

A:
1: 30.9; 2: 83.0

====

system.name: HSV-1 protease (Human herpesvirus 1)
I'd appreciate it if you could supply pIC50 values for the items below.
Numbers only, as −log10 of the molar value.

Example cases with answers are listed next.
Cc1c(NC(=O)CCCNC(=O)c2ccc(N(C)C)cc2)ccc2nc(NC(C)(C)C(=O)N(C)CCc3ccccn3)oc(=O)c12 ... 6.40
Cc1c(NC(=O)OC(C)(C)C)ccc2nc(NC3(C(=O)N(C)CCc4ccncc4)CCCC3)oc(=O)c12 ... 6.40
Cc1c(NC(=O)OC(C)(C)C)ccc2nc(N3CCC[C@H]3C(=O)NCc3ccccn3)oc(=O)c12 ... 5.96
Cc1c(NC(=O)CCCNC(=O)c2ccncc2)ccc2nc(NC(C)(C)C(=O)N(C)CCc3ccccn3)oc(=O)c12 ... 6.30
Cc1c(NC(=O)OC(C)(C)C)ccc2nc(N(C)[C@@H](C)C(=O)NCc3cccnc3)oc(=O)c12 ... 5.96

Need pIC50 for each of these compounds.
1. Cc1c(NC(=O)CCNC(=O)OCc2ccccc2)ccc2nc(N[C@@H](C)C(=O)N(C)CCc3ccccn3)oc(=O)c12
2. Cc1c(NC(=O)CCC2CCCCC2)ccc2nc(NC(C)(C)C(=O)N(C)CCc3ccccn3)oc(=O)c12

A:
1: 5.96; 2: 5.96

====

Test system: HSV-1
protocol.text: Antiviral activity, HSV-1 in Vero cells, plaque method
Type: cell-based
particulars: Human alphaherpesvirus 1, 20 hours, 90% inhibition of plaque formation
test.readout: EC90 (µM)
One number for each entry, in µM.

Need EC90 for each of these compounds.
1. Cc1c(NC(=O)c2ccc(Cl)cc2)ccc2nc(NC(C)(C)C(=O)N(C)CCc3ccccn3)oc(=O)c12 [Compound No.153]
2. Cc1c(NC(=O)OC(C)(C)C)ccc2nc(N3C[C@H](OCc4ccccc4)C[C@H]3C(=O)NCc3cccnc3)oc(=O)c12 [Compound No.110]
3. Cc1c(NC(=O)OC(C)(C)C)ccc2nc(N3C[C@H](OCc4ccccc4)C[C@H]3C(=O)N(C)CCc3cccnc3)oc(=O)c12 [Compound No.115]
4. Cc1c(NC(=O)OC(C)(C)C)ccc2nc(NC3(C(=O)N(C)CCc4ccncc4)CCCCC3)oc(=O)c12 [Compound No.129]

A:
1: 6.2; 2: 7.4; 3: 6.1; 4: 5.8
